# assay-system: T1, Human Id2: Histidine (human, UniProt Q02363 1-134, limits assumed)
# T1 construct: Fusion protein made in E. coli from vector pGW07; also called h-Id2: His; not shown: His tag
# T1 sequence (looked up): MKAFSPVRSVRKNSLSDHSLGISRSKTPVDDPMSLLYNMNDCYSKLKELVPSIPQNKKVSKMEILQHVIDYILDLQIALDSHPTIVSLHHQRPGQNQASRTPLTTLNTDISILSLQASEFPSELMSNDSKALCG
# assay-procedure: ELISA, Ab 0.000 µg/ml (blank)
# reported A450; entries follow
Supply the numeric figure in A450, leaving out any unit text.

[
  {
    "binder": "rabbit monoclonal anti-mouse/human Id3, clone #BCH-4/#17-3 (antibody, V domains shown, Rabbit IgG from a rabbit hybridoma; also called m/h Id3 MoAb 17-3; BCH-3/#17-3) VH: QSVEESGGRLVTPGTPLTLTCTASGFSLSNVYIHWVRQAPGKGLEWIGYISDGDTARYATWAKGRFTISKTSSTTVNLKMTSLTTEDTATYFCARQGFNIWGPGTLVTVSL VL: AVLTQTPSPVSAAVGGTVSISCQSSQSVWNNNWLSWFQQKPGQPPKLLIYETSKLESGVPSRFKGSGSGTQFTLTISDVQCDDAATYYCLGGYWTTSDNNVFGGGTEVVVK",
    "units-text": "A450",
    "A450": 0.043
  }
]

Here is the next item to consider.
Q: Given rabbit monoclonal anti-mouse/human Id3, clone #BCH-4/#42-1 (antibody, V domains shown, Rabbit IgG from a rabbit hybridoma; also called m/h Id3 MoAb 42-1) VH: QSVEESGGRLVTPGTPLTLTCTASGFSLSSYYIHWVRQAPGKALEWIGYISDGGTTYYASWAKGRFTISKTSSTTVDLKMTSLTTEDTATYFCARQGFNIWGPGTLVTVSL VL: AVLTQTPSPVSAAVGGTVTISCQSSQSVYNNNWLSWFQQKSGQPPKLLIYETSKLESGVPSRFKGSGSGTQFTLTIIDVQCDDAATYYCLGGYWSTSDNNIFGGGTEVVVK , respond with its A450.
Result: 0.044

Data provenance is patent US20070178531A1.
